Cited source for all entries: patent US5807860A

Target: ACAT in foamed macrophages (Mus musculus, UniProt Q61263)
Construct: endogenous in cells
Sequence (Q61263 1-540): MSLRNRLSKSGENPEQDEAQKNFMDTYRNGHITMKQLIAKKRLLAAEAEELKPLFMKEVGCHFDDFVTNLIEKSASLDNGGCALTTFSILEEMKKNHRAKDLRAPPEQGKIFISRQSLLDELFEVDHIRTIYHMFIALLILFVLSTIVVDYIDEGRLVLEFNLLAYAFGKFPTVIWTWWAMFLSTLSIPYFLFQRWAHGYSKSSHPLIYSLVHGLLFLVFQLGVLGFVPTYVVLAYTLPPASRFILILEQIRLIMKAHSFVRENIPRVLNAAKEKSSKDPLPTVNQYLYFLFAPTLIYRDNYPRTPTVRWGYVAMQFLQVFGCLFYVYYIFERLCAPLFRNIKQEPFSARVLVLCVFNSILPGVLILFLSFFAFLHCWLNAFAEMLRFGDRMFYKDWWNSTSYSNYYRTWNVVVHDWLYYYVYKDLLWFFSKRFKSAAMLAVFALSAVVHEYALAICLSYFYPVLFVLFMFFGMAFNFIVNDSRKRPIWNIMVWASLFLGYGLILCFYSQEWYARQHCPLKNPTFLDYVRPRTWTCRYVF
Assay: Inhibitory activity against ACAT derived from foamed macrophages
Settings: foamed macrophages from ddY female mice; acetylated LDL, 24 hours; cholesterol oleate produced; read-out: Inhibitory activity against ACAT, Macrophage (IC50)
Structures can show the parent of a compound that is named as a salt.
Attribute: pIC50
Scale: negative log10 of molar concentration, which is what pIC50 denotes.

INSERT INTO measurements (compound, measured_value) VALUES
  ('CCCCCN(Cc1cc(-n2ccnc2)ccc1OC)C(=O)Nc1c(C)cccc1OCCCN1CCN(c2ccccc2)CC1 [Example 2, trihydrochloride]', 6.88),
  ('CCCCCN(Cc1ccc(OC)c(-n2ccnc2)c1)C(=O)Nc1c(C)cccc1OCCCN1CCN(c2ccccc2)CC1 [Example 58]', 5.98),
  ('CCCCCN(Cc1ccc(OCc2ccccn2)cc1)C(=O)Nc1c(C)cccc1OCCCN1CCN(c2ccccc2)CC1 [Example 34]', 6.92);

Kindly review the next compound as well.
Value of pIC50 reported for the compound CCCCCN(Cc1cc(-n2ccnc2)ccc1OC)C(=O)Nc1c(C)cccc1OCCN1CCN(c2ccccc2)CC1 [Example 18] is 6.36

###

Attribute: log10 IC50
target: ACAT of HepG2 cells (Homo sapiens, UniProt P35610); construct: endogenous in cells; assay: Inhibitory activity against ACAT of HepG2 cells derived from human liver cancer cells; conditions: radio-labelled oleic acid/BSA complex, cholesterol oleate produced
Sequence (P35610 whole entry): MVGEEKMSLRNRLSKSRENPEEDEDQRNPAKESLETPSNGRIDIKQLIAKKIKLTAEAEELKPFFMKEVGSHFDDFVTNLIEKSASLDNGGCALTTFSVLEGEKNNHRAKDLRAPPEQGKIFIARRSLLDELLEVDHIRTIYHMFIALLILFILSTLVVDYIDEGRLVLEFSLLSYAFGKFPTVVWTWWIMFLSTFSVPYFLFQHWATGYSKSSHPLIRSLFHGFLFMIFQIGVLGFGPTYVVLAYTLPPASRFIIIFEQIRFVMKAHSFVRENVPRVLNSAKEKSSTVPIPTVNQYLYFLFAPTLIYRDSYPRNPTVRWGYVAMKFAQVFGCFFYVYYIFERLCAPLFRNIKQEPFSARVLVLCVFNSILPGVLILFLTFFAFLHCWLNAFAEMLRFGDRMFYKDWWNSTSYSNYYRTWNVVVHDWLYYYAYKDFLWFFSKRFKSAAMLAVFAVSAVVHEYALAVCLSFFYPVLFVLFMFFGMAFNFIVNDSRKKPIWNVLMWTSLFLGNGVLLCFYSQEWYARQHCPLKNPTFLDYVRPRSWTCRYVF
Parameter value (number): base-10 log of IC50 in nM.

Check out these entries, answers already filled in.
INSERT INTO measurements (molecule, measured_value) VALUES
  ('CN(Cc1ccccc1OCc1ccccn1)C(=O)Nc1c(OCCCN2CCN(c3ccccc3)CC2)ccc2c1CCCC2', 2.80),
  ('CCCCCN(Cc1cc(OC)ccc1-n1ccnc1)C(=O)Nc1c(C)cccc1OCCCN1CCN(c2ccccc2)CC1', 2.34);

Assay ACAT of HepG2 cells (Homo sapiens, UniProt P35610), sample CCCCCN(Cc1cc(-n2ccnc2)ccc1OC)C(=O)Nc1c(C)cccc1OCCCN1CCN(c2ccccc2)CC1 [Example 1] , log10 IC50 read: 2.11
